# key: entry, value: pseudo first-order rate constant for the degradation
- experimental_system: carboxypeptidase A (Bos taurus, UniProt P00730)
- Construct: purchased Sigma, UK type I (catalogue number not given); host or cells: bovine pancreas
- Sequence (P00730 111-419): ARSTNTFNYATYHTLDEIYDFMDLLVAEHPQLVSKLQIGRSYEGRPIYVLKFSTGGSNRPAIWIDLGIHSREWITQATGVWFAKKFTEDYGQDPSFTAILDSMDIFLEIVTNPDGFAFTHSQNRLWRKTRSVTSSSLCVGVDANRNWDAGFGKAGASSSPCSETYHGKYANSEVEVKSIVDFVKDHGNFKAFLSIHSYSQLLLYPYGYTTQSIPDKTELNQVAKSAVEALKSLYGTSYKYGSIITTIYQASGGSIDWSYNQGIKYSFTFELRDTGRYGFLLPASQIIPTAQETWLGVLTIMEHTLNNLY
- assay_details: Hydrolysis kinetics in carboxypeptidase A solution
- Assay type: in vitro ADME, bovine
- measurement_parameters: 50 mM phosphate buffer pH 7.4, 37° C., carboxypeptidase A 1 U/ml
Where a SMILES comes first, the peptide text is derived from it. [ ]: non-standard residue; d: D form. Dab = NCC[C@H](N)C(=O)O; Dap = NC[C@H](N)C(=O)O
Write the number in min⁻¹ without appending the unit.

Use the examples below as a reference point.
molecule	endpoint_result
CC(C)C[C@H](NC(=O)[C@H](Cc1ccccc1)NC(=O)CNC(=O)CNC(=O)[C@@H](N)Cc1ccc(O)cc1)C(=O)O [Leu-Enkephalin-OH, H-Tyr-Gly-Gly-Phe-Leu-OH, reference compound]	0.98
CC(C)C[C@H](NC(=O)[C@H](Cc1ccccc1)NC(=O)CNC(=O)CNC(=O)[C@@H](N)Cc1ccc(O)cc1)C(=O)N[C@@H](CCN)C(=O)N[C@@H](CCN)C(=O)N[C@@H](CCN)C(=O)N[C@@H](CCN)C(=O)N[C@@H](CCN)C(=O)N[C@@H](CCN)C(=O)O [Leu-Enkephalin-(Dbu)6-OH, H-Tyr-Gly-Gly-Phe-Leu-(Dbu)6-OH] (H-YGGFL[Dab][Dab][Dab][Dab][Dab][Dab]-OH)	0.005
CSCC[C@H](NC(=O)[C@H](CC(C)C)NC(=O)CNC(=O)[C@H](Cc1ccccc1)NC(=O)[C@H](Cc1ccccc1)NC(=O)[C@H](CCC(N)=O)NC(=O)[C@H](CCC(N)=O)NC(=O)[C@@H]1CCCN1C(=O)[C@H](CCCCN)NC(=O)[C@@H]1CCCN1C(=O)[C@@H](N)CCCNC(=N)N)C(N)=O [Substance P-NH2, reference compound]	0.02

For the next question, use this molecule.
(Q) Given the molecule CC(C)C[C@H](NC(=O)[C@H](Cc1ccccc1)NC(=O)CNC(=O)CNC(=O)[C@@H](N)Cc1ccc(O)cc1)C(=O)N[C@@H](CN)C(=O)N[C@@H](CN)C(=O)N[C@@H](CN)C(=O)N[C@@H](CN)C(=O)N[C@@H](CN)C(=O)N[C@@H](CN)C(=O)O [Leu-Enkephalin-(Dpr)6-OH, H-Tyr-Gly-Gly-Phe-Leu-(Dpr)6-OH] (H-YGGFL[Dap][Dap][Dap][Dap][Dap][Dap]-OH) , what is its reported pseudo first-order rate constant for the degradation?
(A) 0.024

---

- experimental_system: leucine aminopeptidase (Sus scrofa, UniProt P28839)
- Construct: purchased Sigma, UK type III-CP (catalogue number not given); host or cells: porcine kidney
- Sequence (P28839 whole entry): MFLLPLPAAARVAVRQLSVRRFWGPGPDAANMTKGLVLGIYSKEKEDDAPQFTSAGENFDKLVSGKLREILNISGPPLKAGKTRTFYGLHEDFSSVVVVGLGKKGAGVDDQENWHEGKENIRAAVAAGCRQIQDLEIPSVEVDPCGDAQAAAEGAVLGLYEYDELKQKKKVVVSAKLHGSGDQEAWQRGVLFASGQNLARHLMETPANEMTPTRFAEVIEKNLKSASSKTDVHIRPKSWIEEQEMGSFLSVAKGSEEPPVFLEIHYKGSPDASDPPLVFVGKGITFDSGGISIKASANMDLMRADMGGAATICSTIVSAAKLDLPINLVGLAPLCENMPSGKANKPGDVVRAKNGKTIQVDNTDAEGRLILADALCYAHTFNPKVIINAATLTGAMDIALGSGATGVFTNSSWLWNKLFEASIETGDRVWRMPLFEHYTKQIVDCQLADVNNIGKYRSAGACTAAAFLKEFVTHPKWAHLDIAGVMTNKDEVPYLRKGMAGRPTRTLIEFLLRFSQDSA
- assay_details: Hydrolysis kinetics in leucine aminopeptidase solution
- Assay type: in vitro ADME, porcine
- measurement_parameters: 50 mM phosphate buffer pH 7.4, 37° C., leucine aminopeptidase 25 U/ml
# maps each entry to its pseudo first-order rate constant for the degradation
API: value field is a number in min⁻¹; no unit string.

compound	endpoint_result
CSCC[C@H](NC(=O)[C@H](CC(C)C)NC(=O)CNC(=O)[C@H](Cc1ccccc1)NC(=O)[C@H](Cc1ccccc1)NC(=O)[C@H](CCC(N)=O)NC(=O)[C@H](CCC(N)=O)NC(=O)[C@@H]1CCCN1C(=O)[C@H](CCCCN)NC(=O)[C@@H]1CCCN1C(=O)[C@@H](N)CCCNC(=N)N)C(N)=O [Substance P-NH2, reference compound]	0.045

Proceed to the following item.
(Q) Given the entry CC(C)C[C@H](NC(=O)[C@H](Cc1ccccc1)NC(=O)CNC(=O)CNC(=O)[C@@H](N)Cc1ccc(O)cc1)C(=O)O [Leu-Enkephalin-OH, H-Tyr-Gly-Gly-Phe-Leu-OH, reference compound] , report its measured pseudo first-order rate constant for the degradation.
(A) 0.68
